- TARGET OF ASSAY: Na+/H+ exchange transport system (Rattus norvegicus, UniProt P26431)
- Construct: a pH change in isolated ventricular myocytes (rat) under an acid load
- Sequence (P26431 whole entry): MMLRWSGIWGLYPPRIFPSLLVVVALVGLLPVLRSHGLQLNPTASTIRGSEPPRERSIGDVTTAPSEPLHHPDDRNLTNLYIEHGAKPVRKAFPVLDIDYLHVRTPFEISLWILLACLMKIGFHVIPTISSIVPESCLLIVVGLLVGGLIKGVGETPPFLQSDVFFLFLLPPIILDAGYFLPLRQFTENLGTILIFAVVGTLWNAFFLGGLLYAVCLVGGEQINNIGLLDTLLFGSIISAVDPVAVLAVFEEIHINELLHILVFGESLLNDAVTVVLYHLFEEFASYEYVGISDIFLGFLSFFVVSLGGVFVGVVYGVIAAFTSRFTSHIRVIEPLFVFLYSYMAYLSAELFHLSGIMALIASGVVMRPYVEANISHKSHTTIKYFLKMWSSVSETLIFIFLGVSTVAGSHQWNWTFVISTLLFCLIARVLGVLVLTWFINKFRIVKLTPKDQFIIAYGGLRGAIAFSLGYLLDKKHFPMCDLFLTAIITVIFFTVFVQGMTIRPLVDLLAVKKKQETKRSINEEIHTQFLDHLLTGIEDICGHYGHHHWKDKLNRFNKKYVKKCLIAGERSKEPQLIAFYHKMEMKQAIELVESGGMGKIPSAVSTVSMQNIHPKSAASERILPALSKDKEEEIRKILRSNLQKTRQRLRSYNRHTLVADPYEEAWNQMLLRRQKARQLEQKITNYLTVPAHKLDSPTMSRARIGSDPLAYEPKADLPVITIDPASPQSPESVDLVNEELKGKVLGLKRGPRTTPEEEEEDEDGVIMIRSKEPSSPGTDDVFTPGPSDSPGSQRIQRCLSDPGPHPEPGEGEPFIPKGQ
- MEASUREMENT DESCRIPTION: Inhibitory effect on the Na+/H+ exchange transport system (in vitro), pH change in isolated ventricular myocytes under an acid load
- Description: Inhibitory Effect on the Na^+/H^+ Exchange Transport System (In Vitro) A test was carried out according to the method of Iemori et al. (J. Hypertension, 8, 153(1990)). In detail, inhibitory effect on the Na^+/H^+ exchange transport system was evaluated by using as an indication a pH change in isolated ventricular myocytes (rat) under an acid load.
ENDPOINT: pIC50
Please keep in mind that pIC50 is minus log10 of the molar concentration; only the number is needed.

Query: Give the reported value of pIC50 for this record: CC1CC(C(=O)NC(=N)N)=Cc2ccccc2C1 (stereo not shown)
Result: 6.68
